Record set: Ki | Sodium-dependent serotonin transporter (Homo sapiens) | literature, multiple sources.

These solved cases illustrate the format of a correct answer.
- Molecule: "Fc1cccc(Cl)c1Oc1cccc(F)c1O[C@@H]1CCNC1"
  Ki: "> 4.53 µM"
- Molecule: "C[C@H]1CN(C(=O)c2ccc(-c3ccccc3F)cc2)CCN1C(=O)c1ccc2cc[nH]c2c1"
  Ki: "> 10 µM"
- Molecule: "Cc1ccccc1-c1ccc(C(=O)N2CCN(C(=O)c3ccc4cc[nH]c4c3)[C@@H](C)C2)cc1"
  Ki: "> 10 µM"
- Molecule: "CCCN1CCN(c2ccc3c(c2)C(N(C)C(=O)OCc2ccccc2)CCC3)CC1 (stereo not given)"
  Ki: "> 10 µM"
- Molecule: "CC(C)(C)c1ccc(C2CCC(CN)O2)cc1 (stereo not given)"
  Ki: "> 10 µM"

Lab note: record Ki of Fc1cccc(Cl)c1Oc1ncccc1OC1CCNC1 (stereo not given) tested on Sodium-dependent serotonin transporter (Homo sapiens).
> 6.13 µM
